Catalogue of Ki KOR/Ki MOR values
SYSTEM: KOR (Cavia porcellus, UniProt P41144)
Construct: from tissue; host or cells: guinea pig cerebellum preparation
TEST DESCRIPTION: Opioid receptor competitive binding assay, KOR (3H-U-69,593)
Parameters: species or system guinea pig
MEASUREMENT SETUP: Table 12; selectivity for MOR versus KOR
Just the number, please, no unit after it.

NC(Cc1ccc(O)cc1)C(O)C/C=C/C(O)C(Cc1ccccc1)C(=O)NC(CO)Cc1ccccc1 (single isomer, unassigned) [(S,S,S,R)-11] : 600
C=CC(O)C(Cc1ccccc1)NC(=O)C(Cc1ccccc1)C(O)/C=C/CC(O)C(N)Cc1ccc(O)cc1 (single isomer, unassigned) [(S,S,R,R)-12] : 35
NC(=O)C(Cc1ccccc1)NC(=O)C(Cc1ccccc1)C(O)/C=C/CC(O)C(N)Cc1ccc(O)cc1 (single isomer, unassigned) [(S,S,R,R)-2] : 48
NC(=O)C(Cc1ccccc1)NC(=O)C(Cc1ccccc1)C(O)/C=C\CC(O)C(N)Cc1ccc(O)cc1 (single isomer, unassigned) [(S,S,R,R)-9] : 22
NC(=O)C(Cc1ccccc1)NC(=O)C(Cc1ccccc1)C(O)/C=C\CC(O)C(N)Cc1ccc(O)cc1 (single isomer, unassigned) [(S,S,S,R)-9] : 16

Shift focus to the following entry.
Form entry - test system: KOR (Cavia porcellus, UniProt P41144); read-out: Ki KOR/Ki MOR; molecule: C=CC(O)C(Cc1ccccc1)NC(=O)C(Cc1ccccc1)C(O)/C=C/CC(O)C(N)Cc1ccc(O)cc1 (single isomer, unassigned) [(S,S,S,R)-12]
53

From: patent US7223888B2
